Tested on: HCC-2998 colon
Protocol: NCI-60 one-dose screen, 48 h (100 = growth as untreated, 0 = no growth, -100 = all killed)
Condition: 10 µM unless noted
The panel holds about 83,000 compounds, 20% with a hit somewhere; the sample as a whole holds those more often. Activity calls are given as the source filed them. The calls were made as follows: active = growth percent below 10; inactive = the rest.
Provide the recorded growth for the entries that follow.

Known results for compounds:
Give the value of growth reported for the following: COc1ccc2c(c1)OC1=C(C(=O)OC1)C2c1cc(OC)c(OC)c(OC)c1 (stereo not drawn)
6.19% (active)

Note down growth recorded for "O=c1[nH]nc(-c2ccc(Br)cc2)cc1Cc1ccc(O)cc1"
118% (inactive)

Provide growth value for the following compound: "COc1cc(/C=C2\C(=O)N(Cc3ccc(Cl)cc3)c3ccccc32)cc(OC)c1OC"
-28.5% (active)

Answer with the recorded growth for the compound listed here: Cc1ccc(C2CC(c3cccc(Nc4ccncc4)c3)=NN2c2ccc(Cl)cc2)cc1 (stereo not drawn)
-93.4% (active)

Provide each entry's growth from the list below.
1. C=CCn1c(SCC(=O)Nc2ccc(C(=O)/C=C/c3cc(OC)c(OC)c(OC)c3)cc2)nnc1-c1cc(OC)c(OC)c(OC)c1
2. COC(=O)C1NC(=S)N(c2ccc(Cl)cc2)C1/C=C/c1ccccc1 (stereo not drawn)
3. COc1ccccc1N1CCN(C(=O)c2ccc3nc(NC(=O)c4ccc(NCCc5ccccc5)c([N+](=O)[O-])c4)sc3c2)CC1
4. Fc1ccc(C2CC(c3cccc(Nc4ccncc4)c3)=NN2c2ccccc2)cc1 (stereo not drawn)

20.2% (inactive)
93.2% (inactive)
110% (inactive)
3.99% (active)

For each of the compounds below, note its growth.
1. CC1(c2ccccc2)NC(=O)N(CC(=O)Nc2cccc(I)c2)C1=O (stereo not drawn)
2. CCCCOc1ccc(/C=N/Nc2cc(C)nc3ccc(Cl)cc23)cc1
3. COc1ccc(C(=O)c2cc3c(N)c(C(=O)Nc4ccc(Cl)cc4)sc3nc2C)cc1
4. Cc1[nH]c(C(=O)Nc2ccccc2OCc2cccc(C(=O)NCCN)c2)c(Cl)c1Cl
5. COC(=O)CCCCCCCCC1(C)C=CC(C(C)O)=CC1 (stereo not drawn)

106% (inactive)
-71.1% (active)
91.6% (inactive)
84.4% (inactive)
98.7% (inactive)

----------
Tested on: SW-620 colon
Protocol: NCI-60 one-dose screen, 48 h
Condition: 10 µM unless noted
This is part of a sample that, as a whole, favours compounds with a hit. Of some 83,000 tested, about 20% had one in any assay. Active and inactive are the calls of the source. Rule for the calls: active = growth percent below 10; inactive = the rest.
// allowed return values: yes for active, no for inactive

Per the assay record, what outcome was assigned to "CCCc1cc2c(cc1Br)OCO2" ?
no

Continuing:
Call for entry Clc1cc(Cl)cc(N2N=C(c3cccc(Nc4ccncc4)c3)CC2c2ccccc2)c1 (configuration not stated) :
yes

Recorded test outcome, item "COc1cccc(CNCCN2C(=O)c3ccc4c5c(ccc(c35)C2=O)C(=O)N(CCNCc2cccc(OC)c2)C4=O)c1"
yes

Given "COc1ccc(Nn2c(SCC(=O)Nc3nc(-c4ccc(Cl)cc4)cs3)nc(C)c2C)cc1" , state the outcome it received in this test.
no

What did the test return for "Fc1ccc(-n2cc(COc3ncnc4sc5c(c34)CCCC5)nn2)cc1Cl" ?
no

Recorded call for "COc1cc(NCCN(CC(C)C)C2CCCC2)c2ncccc2c1" ?
no

Can you look up the reported call for "CC(C)CCSc1nc(NNC(N)=O)c(C#N)c(-c2ccccc2)n1" for me?
no
